Recorded pKd by entry
# SUBJECT OF TEST: Human recombinant FAP (Homo sapiens)
# Sequence (Q12884 whole entry): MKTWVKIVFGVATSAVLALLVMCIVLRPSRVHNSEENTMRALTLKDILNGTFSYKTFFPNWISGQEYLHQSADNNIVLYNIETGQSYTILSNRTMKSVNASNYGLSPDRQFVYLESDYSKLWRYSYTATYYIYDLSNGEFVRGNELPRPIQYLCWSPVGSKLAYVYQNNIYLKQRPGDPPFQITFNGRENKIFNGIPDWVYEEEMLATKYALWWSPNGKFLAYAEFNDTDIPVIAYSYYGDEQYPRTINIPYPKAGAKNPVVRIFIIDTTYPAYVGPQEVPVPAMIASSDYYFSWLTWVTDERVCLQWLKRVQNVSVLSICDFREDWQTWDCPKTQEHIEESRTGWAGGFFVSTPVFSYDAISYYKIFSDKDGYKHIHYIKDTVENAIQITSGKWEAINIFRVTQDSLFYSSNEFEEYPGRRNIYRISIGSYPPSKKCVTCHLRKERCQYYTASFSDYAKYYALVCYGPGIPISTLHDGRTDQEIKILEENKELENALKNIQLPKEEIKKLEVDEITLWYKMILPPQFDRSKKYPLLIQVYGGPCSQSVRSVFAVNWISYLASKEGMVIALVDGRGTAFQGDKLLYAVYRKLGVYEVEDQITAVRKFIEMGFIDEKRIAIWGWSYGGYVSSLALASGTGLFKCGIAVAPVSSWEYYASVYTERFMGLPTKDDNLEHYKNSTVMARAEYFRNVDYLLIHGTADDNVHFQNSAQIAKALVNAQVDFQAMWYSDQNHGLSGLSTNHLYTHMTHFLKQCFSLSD
# ASSAY EXPLANATION: Surface plasmon resonance (Biacore) assay
pKd: −log10 of the molar value. Numbered stars: 1 amine (or outer) side, 2 acyl side, 3 side chain; on linkers, the order of the positions; unused ones are H or OH. Bridge positions count the residues as written; N and C are the ends. Square brackets hold non-standard residues; d marks the D form. Peptide text beside a SMILES is read from it. * marks the point of attachment. ξ: configuration not given here. X18 = NCCNCC(CNCCN)C(=O)N[C@@H](CCC(=O)O)C(=O)NCCCOCCOCCOCCCN*; X1 = NCCNCC(CNCCN)C(=O)N1CCN(CC(=O)NCCCOCCOCCOCCCN*)CC1; Pyridine(3,5-bisCH2) = c1ncc(C[*:2])cc1C[*:1]; mXylylene = c1cc(C[*:1])cc(C[*:2])c1; PEG6 = NCCOCCOCCOCCOCCOCCOCCC(=O)O; Suc = O=C(CCC(=O)[*:2])[*:1]; Nle = CCCC[C@H](N)C(=O)O; X2 = NCCNCC(CNCCN)C(=O)*; ξC = NC(CS)C(=O)O
REPORTED ENDPOINT: pKd

COMPOUND	REPORTED ENDPOINT	RESULT
CCCC[C@H](NC(=O)CCC(=O)NCCCOCCOCCOCCCNC(=O)[C@H](CCC(=O)O)NC(=O)C(CNCCN)CNCCN)C(=O)N[C@H]1CSCc2cccc(c2)CSC[C@@H](C(=O)O)NC(=O)[C@H](Cc2ccccc2)NC(=O)[C@H](CCC(=O)O)NC(=O)[C@H]([C@@H](C)O)NC(=O)[C@@H]2CCCN2C(=O)[C@@H]2CCCN2C1=O [3BP-4222] ({X18-Suc}-[Nle]CPPTEFC-OH; linker 2-8 via mXylylene)	pKd	> 8.00
CCCC[C@H](NC(=O)CCOCCOCCOCCOCCOCCOCCNC(=O)C(CNCCN)CNCCN)C(=O)N[C@H]1CSCc2cccc(c2)CSCC(C(=O)O)NC(=O)[C@H](Cc2ccccc2)NC(=O)[C@H](CCC(N)=O)NC(=O)[C@H]([C@@H](C)O)NC(=O)[C@@H]2CCCN2C(=O)[C@@H]2CCCN2C1=O (stereo partly drawn)	pKd	7.10 to 8.00
CCCCCC(=O)N[C@H]1CSCc2cc(CSCCNC(=O)CN3CCN(CC(=O)O)CCN(CC(=O)O)CCN(CC(=O)O)CC3)cc(c2)CSC[C@@H](C(=O)N(C)CC(=O)O)NC(=O)[C@H](Cc2ccccc2)NC(=O)[C@H](CCC(N)=O)NC(=O)[C@H]([C@@H](C)O)NC(=O)[C@@H]2CCCN2C(=O)[C@@H]2CCCN2C1=O	pKd	> 8.00
CCCCC(=O)N[C@H]1CSCc2cc(CSCCNC(=O)CN3CCN(CC(=O)O)CCN(CC(=O)O)CCN(CC(=O)O)CC3)cc(c2)CSC[C@@H](C(=O)O)NC(=O)[C@H](Cc2ccccc2)NC(=O)[C@H](CCC(N)=O)NC(=O)[C@H]([C@@H](C)O)NC(=O)[C@@H]2CCCN2C(=O)[C@@H]2CCCN2C1=O	pKd	> 8.00
CCCCCC(=O)N[C@H]1CSCc2cc(CSCCNC(=O)COCCOCCNC(=O)CCC(C(=O)O)N3CCN(CC(=O)O)CCN(CC(=O)O)CC3)cc(c2)CSC[C@@H](C(=O)O)NC(=O)[C@H](Cc2ccccc2)NC(=O)[C@H](CCC(N)=O)NC(=O)[C@H]([C@@H](C)O)NC(=O)[C@@H]2CCCN2C(=O)[C@@H]2CCCN2C1=O (stereo partly drawn)	pKd	> 8.00
CC(C)CCC(=O)N[C@H]1CSCc2cc(CSCCNC(=O)CN3CCN(CC(=O)O)CCN(CC(=O)O)CCN(CC(=O)O)CC3)cc(c2)CSC[C@@H](C(=O)O)NC(=O)[C@H](Cc2ccccc2)NC(=O)[C@H](CCC(N)=O)NC(=O)[C@H]([C@@H](C)O)NC(=O)[C@@H]2CCCN2C(=O)[C@@H]2CCCN2C1=O	pKd	> 8.00
CCCC[C@H](NC(=O)CCOCCOCCOCCOCCOCCOCCNC(=O)C(CNCCN)CNCCN)C(=O)N[C@H]1CSCc2cncc(c2)CSCC(C(=O)O)NC(=O)[C@H](Cc2ccccc2)NC(=O)[C@H](CCC(=O)O)NC(=O)[C@H]([C@@H](C)O)NC(=O)[C@@H]2CCCN2C(=O)[C@@H]2CCCN2C1=O (stereo partly drawn) [3BP-4773] ({X2-PEG6}-[Nle]CPPTEF[ξC]-OH; linker 2-8 via Pyridine(3,5-bisCH2))	pKd	7.10 to 8.00
CCCC[C@H](NC(=O)CCC(=O)NCCCOCCOCCOCCCNC(=O)CN1CCN(CC(=O)O)CCN(CC(=O)O)CC1)C(=O)N[C@H]1CSCc2cccc(c2)CSCC(C(=O)O)NC(=O)[C@H](Cc2ccccc2)NC(=O)[C@H](CCC(N)=O)NC(=O)[C@H]([C@@H](C)O)NC(=O)[C@@H]2CCCN2C(=O)[C@@H]2CCCN2C1=O (stereo partly drawn)	pKd	> 8.00
CCCC[C@H](NC(=O)CCC(=O)NCCCOCCOCCOCCCNC(=O)CN1CCN(C(=O)C(CNCCN)CNCCN)CC1)C(=O)N[C@H]1CSCc2cncc(c2)CSCC(C(=O)O)NC(=O)[C@H](Cc2ccccc2)NC(=O)[C@H](CCC(=O)O)NC(=O)[C@H]([C@@H](C)O)NC(=O)[C@@H]2CCCN2C(=O)[C@@H]2CCCN2C1=O (stereo partly drawn) [3BP-4775] ({X1-Suc}-[Nle]CPPTEF[ξC]-OH; linker 2-8 via Pyridine(3,5-bisCH2))	pKd	7.10 to 8.00
CCCC[C@H](NC(=O)CCC(=O)NCCCOCCOCCOCCCNC(=O)CN1CCN(C(=O)C(CNCCN)CNCCN)CC1)C(=O)N[C@H]1CSCc2cncc(c2)CSC[C@@H](C(=O)NCCC(=O)O)NC(=O)[C@H](Cc2ccccc2)NC(=O)[C@H](CCC(N)=O)NC(=O)[C@H]([C@@H](C)O)NC(=O)[C@@H]2CCCN2C(=O)[C@@H]2CCCN2C1=O	pKd	> 8.00
CCCCNC(=O)N[C@H]1CSCc2cc(CSCCNC(=O)CN3CCN(CC(=O)O)CCN(CC(=O)O)CCN(CC(=O)O)CC3)cc(c2)CSC[C@@H](C(N)=O)NC(=O)[C@H](Cc2ccccc2)NC(=O)[C@H](CCC(N)=O)NC(=O)[C@H]([C@@H](C)O)NC(=O)[C@@H]2CCCN2C(=O)[C@@H]2CCCN2C1=O	pKd	> 8.00
CCCC[C@H](NC(=O)CCC(=O)NCCCOCCOCCOCCCNC(=O)[C@H](CCC(=O)NC[C@H](O)[C@@H](O)[C@H](O)[C@H](O)CO)NC(=O)C(CNCCN)CNCCN)C(=O)N[C@H]1CSCc2cccc(c2)CSC[C@@H](C(=O)O)NC(=O)[C@H](Cc2ccccc2)NC(=O)[C@H](CCC(N)=O)NC(=O)[C@H]([C@@H](C)O)NC(=O)[C@@H]2CCCN2C(=O)[C@@H]2CCCN2C1=O	pKd	> 8.00

====

Recorded tissue uptake at 6 h by entry
# ASSAY EXPLANATION: in vivo
# CONDITION PARAMETERS: swiss nude, mouse, blood pool surrogate (BPS), iv
Numbered stars: 1 amine (or outer) side, 2 acyl side, 3 side chain; on linkers, the order of the positions; unused ones are H or OH. Bridge positions count the residues as written; N and C are the ends. Square brackets hold non-standard residues; d marks the D form. Peptide text beside a SMILES is read from it. * marks the point of attachment. ξ: configuration not given here. X6 = NCCNCC(CNCCN)C(=O)NCCOCCOCCOCCOCCOCCOCCC(=O)NCCCOCCOCCOCCCN*; X1 = NCCNCC(CNCCN)C(=O)N1CCN(CC(=O)NCCCOCCOCCOCCCN*)CC1; Pyridine(3,5-bisCH2) = c1ncc(C[*:2])cc1C[*:1]; mXylylene = c1cc(C[*:1])cc(C[*:2])c1; PEG6 = NCCOCCOCCOCCOCCOCCOCCC(=O)O; Suc = O=C(CCC(=O)[*:2])[*:1]; Nle = CCCC[C@H](N)C(=O)O; X2 = NCCNCC(CNCCN)C(=O)*; ξC = NC(CS)C(=O)O

COMPOUND	RESULT UNITS	tissue uptake at 6 h
CCCCNC(=O)N[C@H]1CSCc2cc(cc(CN3CCN(C(=O)C(CNCCN)CNCCN)CC3)c2)CSC[C@@H](C(=O)O)NC(=O)[C@H](Cc2ccccc2)NC(=O)[C@H](CCC(N)=O)NC(=O)[C@H]([C@@H](C)O)NC(=O)[C@@H]2CCCN2C(=O)[C@@H]2CCCN2C1=O	%ID/g	0.86
CCCC[C@H](NC(=O)CCC(=O)NCCCOCCOCCOCCCNC(=O)CCOCCOCCOCCOCCOCCOCCNC(=O)C(CNCCN)CNCCN)C(=O)N[C@H]1CSCc2cccc(c2)CSCC(C(=O)O)NC(=O)[C@H](Cc2ccccc2)NC(=O)[C@H](CCC(N)=O)NC(=O)[C@H]([C@@H](C)O)NC(=O)[C@@H]2CCCN2C(=O)[C@@H]2CCCN2C1=O (stereo partly shown)	%ID/g	0.07
CCCC[C@H](NC(=O)CCC(=O)NCCCOCCOCCOCCCNC(=O)CN1CCN(C(=O)C(CNCCN)CNCCN)CC1)C(=O)N[C@H]1CSCc2cncc(c2)CSC[C@@H](C(=O)NCCC(=O)O)NC(=O)[C@H](Cc2ccccc2)NC(=O)[C@H](CCC(N)=O)NC(=O)[C@H]([C@@H](C)O)NC(=O)[C@@H]2CCCN2C(=O)[C@@H]2CCCN2C1=O	%ID/g	0.11
CCCCNC(=O)N[C@H]1CSCc2cc(CSCCNC(=O)C(CNCCN)CNCCN)cc(c2)CSC[C@@H](C(=O)O)NC(=O)[C@H](Cc2ccccc2)NC(=O)[C@H](CCC(N)=O)NC(=O)[C@H]([C@@H](C)O)NC(=O)[C@@H]2CCCN2C(=O)[C@@H]2CCCN2C1=O	%ID/g	0.78
CCCC[C@H](NC(=O)CCC(=O)NCCCOCCOCCOCCCNC(=O)C(CNCCN)CNCCN)C(=O)N[C@H]1CSCc2cncc(c2)CSCC(C(=O)O)NC(=O)[C@H](Cc2ccccc2)NC(=O)[C@H](CCC(N)=O)NC(=O)[C@H]([C@@H](C)O)NC(=O)[C@@H]2CCCN2C(=O)[C@@H]2CCCN2C1=O (stereo partly shown)	%ID/g	0.01
CCCC[C@H](NC(=O)CCOCCOCCOCCOCCOCCOCCNC(=O)C(CNCCN)CNCCN)C(=O)N[C@H]1CSCc2cccc(c2)CSCC(C(=O)O)NC(=O)[C@H](Cc2ccccc2)NC(=O)[C@H](CCC(N)=O)NC(=O)[C@H]([C@@H](C)O)NC(=O)[C@@H]2CCCN2C(=O)[C@@H]2CCCN2C1=O (stereo partly shown)	%ID/g	0.04
CCCC[C@H](NC(=O)CCOCCOCCOCCOCCOCCOCCNC(=O)C(CNCCN)CNCCN)C(=O)N[C@H]1CSCc2cncc(c2)CSCC(C(=O)O)NC(=O)[C@H](Cc2ccccc2)NC(=O)[C@H](CCC(=O)O)NC(=O)[C@H]([C@@H](C)O)NC(=O)[C@@H]2CCCN2C(=O)[C@@H]2CCCN2C1=O (stereo partly shown) [3BP-4773] ({X2-PEG6}-[Nle]CPPTEF[ξC]-OH; linker 2-8 via Pyridine(3,5-bisCH2))	%ID/g	0.06
CCCC[C@H](NC(=O)CCC(=O)NCCCOCCOCCOCCCNC(=O)CN1CCN(C(=O)C(CNCCN)CNCCN)CC1)C(=O)N[C@H]1CSCc2cccc(c2)CSCC(C(=O)O)NC(=O)[C@H](Cc2ccccc2)NC(=O)[C@H](CCC(N)=O)NC(=O)[C@H]([C@@H](C)O)NC(=O)[C@@H]2CCCN2C(=O)[C@@H]2CCCN2C1=O (stereo partly shown)	%ID/g	0.06
CCCC[C@H](NC(=O)CCC(=O)NCCCOCCOCCOCCCNC(=O)CCOCCOCCOCCOCCOCCOCCNC(=O)C(CNCCN)CNCCN)C(=O)N[C@H]1CSCc2cccc(c2)CSC[C@@H](C(=O)O)NC(=O)[C@H](Cc2ccccc2)NC(=O)[C@H](CCC(=O)O)NC(=O)[C@H]([C@@H](C)O)NC(=O)[C@@H]2CCCN2C(=O)[C@@H]2CCCN2C1=O [3BP-4780] ({X6-Suc}-[Nle]CPPTEFC-OH; linker 2-8 via mXylylene)	%ID/g	0.43
CCCC[C@H](NC(=O)CCC(=O)NCCCOCCOCCOCCCNC(=O)CN1CCN(C(=O)C(CNCCN)CNCCN)CC1)C(=O)N[C@H]1CSCc2cccc(c2)CSC[C@@H](C(=O)NCCC(=O)O)NC(=O)[C@H](Cc2ccccc2)NC(=O)[C@H](CCC(N)=O)NC(=O)[C@H]([C@@H](C)O)NC(=O)[C@@H]2CCCN2C(=O)[C@@H]2CCCN2C1=O	%ID/g	0.17
CCCC[C@H](NC(=O)CCC(=O)NCCCOCCOCCOCCCNC(=O)CN1CCN(C(=O)C(CNCCN)CNCCN)CC1)C(=O)N[C@H]1CSCc2cccc(c2)CSC[C@@H](C(=O)N[C@@H](CC(=O)O)C(=O)O)NC(=O)[C@H](Cc2ccccc2)NC(=O)[C@H](CCC(=O)O)NC(=O)[C@H]([C@@H](C)O)NC(=O)[C@@H]2CCCN2C(=O)[C@@H]2CCCN2C1=O [3BP-4785] ({X1-Suc}-[Nle]CPPTEFCD-OH; linker 2-8 via mXylylene)	%ID/g	0.48
CCCC[C@H](NC(=O)CCC(=O)NCCCOCCOCCOCCCNC(=O)CN1CCN(C(=O)C(CNCCN)CNCCN)CC1)C(=O)N[C@H]1CSCc2cncc(c2)CSCC(C(=O)O)NC(=O)[C@H](Cc2ccccc2)NC(=O)[C@H](CCC(=O)O)NC(=O)[C@H]([C@@H](C)O)NC(=O)[C@@H]2CCCN2C(=O)[C@@H]2CCCN2C1=O (stereo partly shown) [3BP-4775] ({X1-Suc}-[Nle]CPPTEF[ξC]-OH; linker 2-8 via Pyridine(3,5-bisCH2))	%ID/g	0.04
CCCC[C@H](NC(=O)CCC(=O)NCCCOCCOCCOCCCNC(=O)CN1CCN(C(=O)C(CNCCN)CNCCN)CC1)C(=O)N[C@H]1CSCc2cccc(c2)CSC[C@@H](C(=O)O)NC(=O)[C@H](Cc2ccccc2)NC(=O)[C@H](CCC(=O)O)NC(=O)[C@H]([C@@H](C)O)NC(=O)[C@@H]2CCCN2C(=O)[C@@H]2CCCN2C1=O [3BP-4782] ({X1-Suc}-[Nle]CPPTEFC-OH; linker 2-8 via mXylylene)	%ID/g	0.36
